Sourced from ChEMBL document CHEMBL1137175

# system: Integrin alpha-V/beta-3 (Homo sapiens, UniProt P05106+P06756)
# Sequence (P05106 27-788 limits assumed): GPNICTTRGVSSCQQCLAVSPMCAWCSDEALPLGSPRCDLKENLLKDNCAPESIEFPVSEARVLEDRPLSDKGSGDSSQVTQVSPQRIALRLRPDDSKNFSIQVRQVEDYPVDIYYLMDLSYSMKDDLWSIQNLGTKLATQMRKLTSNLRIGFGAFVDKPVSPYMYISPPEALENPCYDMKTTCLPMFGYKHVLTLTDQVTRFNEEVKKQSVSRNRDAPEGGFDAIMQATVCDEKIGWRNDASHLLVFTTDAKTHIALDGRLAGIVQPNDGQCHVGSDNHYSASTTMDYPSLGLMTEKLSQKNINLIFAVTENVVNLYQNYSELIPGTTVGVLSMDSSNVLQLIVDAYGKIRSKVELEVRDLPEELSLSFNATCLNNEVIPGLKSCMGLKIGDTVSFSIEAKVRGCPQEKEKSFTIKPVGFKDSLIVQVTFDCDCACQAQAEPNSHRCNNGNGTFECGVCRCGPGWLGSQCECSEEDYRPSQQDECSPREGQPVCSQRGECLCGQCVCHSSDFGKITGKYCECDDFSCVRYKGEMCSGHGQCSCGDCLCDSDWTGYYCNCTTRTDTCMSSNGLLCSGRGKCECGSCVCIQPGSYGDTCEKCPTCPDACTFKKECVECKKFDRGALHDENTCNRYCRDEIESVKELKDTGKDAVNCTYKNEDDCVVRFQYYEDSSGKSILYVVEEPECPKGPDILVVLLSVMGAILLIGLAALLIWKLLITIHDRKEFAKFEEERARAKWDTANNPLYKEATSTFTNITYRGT
# Sequence (P06756 31-889 limits assumed): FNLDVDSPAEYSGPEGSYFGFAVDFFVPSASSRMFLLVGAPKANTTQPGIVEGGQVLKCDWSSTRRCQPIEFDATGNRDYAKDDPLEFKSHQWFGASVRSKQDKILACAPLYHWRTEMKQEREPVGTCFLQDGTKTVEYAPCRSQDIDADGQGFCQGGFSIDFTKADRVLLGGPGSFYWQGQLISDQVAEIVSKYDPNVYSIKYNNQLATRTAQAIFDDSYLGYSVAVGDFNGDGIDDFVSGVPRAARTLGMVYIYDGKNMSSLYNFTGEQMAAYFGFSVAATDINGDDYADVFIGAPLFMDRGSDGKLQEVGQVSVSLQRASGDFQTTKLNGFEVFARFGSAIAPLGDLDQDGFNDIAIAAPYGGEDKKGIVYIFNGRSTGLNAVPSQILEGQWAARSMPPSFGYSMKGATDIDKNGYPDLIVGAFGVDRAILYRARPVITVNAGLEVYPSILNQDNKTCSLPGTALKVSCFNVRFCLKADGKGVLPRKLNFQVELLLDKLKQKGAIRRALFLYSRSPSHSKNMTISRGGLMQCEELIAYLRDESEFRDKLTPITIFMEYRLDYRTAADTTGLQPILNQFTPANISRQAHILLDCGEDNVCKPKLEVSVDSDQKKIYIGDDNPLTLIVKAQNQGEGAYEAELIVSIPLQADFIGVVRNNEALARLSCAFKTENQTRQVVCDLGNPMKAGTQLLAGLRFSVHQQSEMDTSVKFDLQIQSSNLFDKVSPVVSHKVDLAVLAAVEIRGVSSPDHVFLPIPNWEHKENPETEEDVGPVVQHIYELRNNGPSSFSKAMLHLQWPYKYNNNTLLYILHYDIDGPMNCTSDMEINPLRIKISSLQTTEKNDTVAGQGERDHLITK
# Sequence (P06756 891-1048 limits assumed): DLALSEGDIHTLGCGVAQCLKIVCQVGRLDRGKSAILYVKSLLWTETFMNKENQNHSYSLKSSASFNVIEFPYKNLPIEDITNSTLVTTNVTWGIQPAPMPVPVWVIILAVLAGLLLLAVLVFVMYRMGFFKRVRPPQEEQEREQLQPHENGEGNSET
# method: Inhibition of binding to alpha v beta 3 receptor
# Type: protein-complex assay
Quick reference for pIC50 among some compounds
# pIC50: negative log10 of molar concentration; output just the value

I would be grateful if you could share the reported pIC50 for "O=C(O)[C@H](CCCCCCCc1ccc2c(n1)NCCC2)NS(=O)(=O)CC1CCCCC1" . 7.74

I would be grateful if you could share the reported pIC50 for "O=C(N[C@@H](CCCCCCCc1ccc2c(n1)NCCC2)C(=O)O)OCc1ccccc1" . 8.21

====

# method: Partition coefficient (logP)
# Assay type: physicochemical
# assay_setup: octanol/water
test_readout: logP
Number only, please.

I would be grateful if you could share the reported logP for "O=C(Cc1ccccc1)N[C@@H](CCCCCCCc1ccc2c(n1)NCCC2)C(=O)O" . 1.13
